- System: A549
- Measurement description: Inhibitory concentration value against human A-549 tumor cell line
- Format: functional, cell-based
Could you please report measured IC50 for the items listed next?

| Chemical structure | IC50 |
| --- | --- |
| COc1cc(/C=C\c2ccc(N(C)C)c([N+](=O)[O-])c2)cc(OC)c1OC | > 5 µM |
| COc1cc(/C=C/c2ccc3c(ccn3S(=O)(=O)c3ccccc3)c2)cc(OC)c1OC | > 5 µM |
| COc1ccc(/C=C/c2ccc3ccccc3c2)cc1F | > 5 µM |
| COc1cc(/C=C/c2cn(C(C)=O)c3ccccc23)cc(OC)c1OC | > 5 µM |

Here are 3 molecules. What values of IC50 were reported for them?
1. Cc1ccc(/C=C\c2ccc3ccccc3c2)cc1
2. C(=C\c1ccc2ccccc2c1)/c1ccc2c(c1)-c1ccccc1C2
3. C(=C/c1ccc2[nH]ccc2c1)/c1ccc2ccccc2c1

## Result
> 5 µM
> 5 µM
> 5 µM

###

- System: HT-29
- Measurement description: Inhibitory concentration value against human colon adenocarcinoma HT-29 tumor cell line
- Type: functional, cell-based
Answer each item with its documented IC50.
One number for each entry, in µM.

| Chemical structure | Target entity | IC50 / µM |
| --- | --- | --- |
| COc1ccc(/C=C\c2ccc3ccccc3c2)cc1O | HT-29 | 0.032 |
| CN(C)c1ccc(/C=C\c2ccc3ccccc3c2)cc1 | HT-29 | 3.66 |
| COc1cccc(/C=C\c2ccc3ccccc3c2)c1 | HT-29 | 1.92 |

Here are 3 compounds. What values of IC50 were reported for them?
1. COc1cc(/C=C\c2ccc3ccccc3c2)cc([N+](=O)[O-])c1OC
2. COc1cc(/C=C/c2cn(C)c3ccccc23)cc(OC)c1OC
3. COc1cc(/C=C\c2c[nH]c3ccccc23)cc(OC)c1OC

## Result
1. 0.42
2. 3.09
3. 3.23

###

- System: HT-29
- Measurement description: Inhibitory concentration value against human colon adenocarcinoma HT-29 tumor cell line
- Assay type: functional, cell-based
For each of the compounds below, state its IC50.

| Chemical structure | IC50 |
| --- | --- |
| COc1cc(/C=C\c2ccc3ccccc3c2)cc(NC(C)=O)c1OC | > 5 µM |

Batch request: IC50 per item, same order as input.
1. COc1cc(/C=C/c2ccc3ccccc3c2)cc([N+](=O)[O-])c1OC
2. C(=C\c1ccco1)/c1ccc2ccccc2c1
3. C(=C/c1ccc2[nH]ccc2c1)/c1ccc2ccccc2c1

## Result
["> 10 µM", "> 5 µM", "> 5 µM"]
